# test details: qHTS assay to identify small molecule agonists of the hypoxia (HIF-1) signaling pathway - cell viability counter screen (AID 1224844); further: nearly all actives have a fitted effect of over 50% in size
# test context: HRE-bla ME-180 viability, CellTiter-Glo luminescence, 17 h; series mostly up to 76.8 µM
Inconclusive results are not listed. The source made the active and inactive calls. The call rests on the fitted dose curve.
observable: outcome

Take a look at these entries with their results.
CC(C)(C)NCC(O)c1ccccc1Cl (centres undefined)	inactive
CCC1CCC(=O)O1 (centres undefined)	inactive
Nc1ccccc1C(=O)OCCc1ccccc1	inactive
OCC1CO1 (centres undefined)	inactive
COc1ccc(C(=O)c2c(C)n(CCN3CCOCC3)c3ccccc23)cc1	inactive

# query: outcome of entry C[Si](Cn1cncn1)(c1ccc(F)cc1)c1ccc(F)cc1
inactive

---

# test details: qHTS assay to identify small molecule antagonists of the estrogen related receptor (ERR) signaling pathway from Tox21 library - cell viability counter screen (AID 1224834); further: nearly all actives have a fitted effect of over 30% in size
# test context: ERR reporter cells viability, CellTiter-Fluor, 17.5 h; series mostly up to 92.4 µM
# Experimental: National Center for Advancing Translational Sciences [NCATS] NIH Chemical Genomics Center [NCGC] U.S. Environmental Protection Agency [EPA] National Institutes of Environmental Health Sciences [NIEHS] National Toxicology Program [NTP] […] The ERR cells were dispensed at 2,000 cells/5 ul/well in 1536-well white plates using a Multidrop dispenser. […] After 30-minute incubation at 37 C/5% CO2, the fluorescence intensity in the plates was measured using a ViewLux plate reader.
Records with an inconclusive call do not appear. Active and inactive are the calls of the source. The call rests on the fitted dose curve; in most records, active means well fitted cell-killing curve with a large enough effect in the repeat runs; inconclusive means weak or mixed curves; inactive means flat fitted curve, though single readings scatter.
Select the correct class. Options are active, inactive and nothing else.

Example entries and their recorded answers appear below.
CC(C)(C#N)C(C)(C)C#N	inactive
CN1CC[C@]23c4c5ccc(O)c4O[C@H]2[C@@H](O)CC[C@H]3[C@H]1C5	inactive
CN[C@@H](C)[C@H](O)c1ccccc1	inactive
CC(Oc1cc(Cl)c(Cl)cc1Cl)C(=O)O (stereo not given)	inactive
O=C(O)C(F)(F)C(F)(F)C(F)(F)C(F)(F)C(F)(F)C(F)(F)C(F)(F)C(F)(F)F	inactive
CC(Cl)C(=O)O (stereo not given)	inactive
C[N+]1(CCC(C(N)=O)(c2ccccc2)c2ccccc2)CCCCC1	inactive
CCCC[P+](CC)(CCCC)CCCC (tested in a mixture with another compound)	inactive

Field: outcome | Entry: COC1=CC(=O)O[C@@H](/C=C/c2ccc3c(c2)OCO3)C1
inactive

Field: outcome | Entry: Clc1ccc2ccccc2c1
inactive

Field: outcome | Entry: O=C(O)C(O)C(O)C(=O)O (stereo not given)
inactive

Field: outcome | Entry: O=C(O)C(F)(F)C(F)(F)C(F)(F)C(F)(F)C(F)(F)F
inactive

Field: outcome | Entry: CCCC1CCCCN1 (stereo not given)
inactive

Field: outcome | Entry: O=C(N/N=C/c1ccc([N+](=O)[O-])o1)c1cc([N+](=O)[O-])cc([N+](=O)[O-])c1O
active

Field: outcome | Entry: CC(C)(C)OOC(C)(C)CCC(C)(C)OOC(C)(C)C
inactive

Field: outcome | Entry: O=C(Cc1ccccc1)c1ccccc1
inactive

Field: outcome | Entry: C[N+](C)(C)CC1CO1 (stereo not given)
inactive

Field: outcome | Entry: CC(C)CCCCCCCOC(=O)c1ccccc1C(=O)OCCCCCCCC(C)C
inactive

Field: outcome | Entry: CC1(C)[C@H](C(=O)O[C@H](C#N)c2cccc(Oc3ccccc3)c2)[C@@H]1C=C(Br)Br
inactive

Field: outcome | Entry: CC(C)(C)N(NC(=O)c1ccc(Cl)cc1)C(=O)c1ccccc1
active

Field: outcome | Entry: C1CCNCC1
inactive

Field: outcome | Entry: C=CCN1C[C@H](C)N([C@H](c2ccc(C(=O)N(CC)CC)cc2)c2cccc(OC)c2)C[C@H]1C
inactive

---

# measurement target: Estrogen receptor (Homo sapiens) (UniProt P03372)
# Sequence (P03372 whole entry, looked up): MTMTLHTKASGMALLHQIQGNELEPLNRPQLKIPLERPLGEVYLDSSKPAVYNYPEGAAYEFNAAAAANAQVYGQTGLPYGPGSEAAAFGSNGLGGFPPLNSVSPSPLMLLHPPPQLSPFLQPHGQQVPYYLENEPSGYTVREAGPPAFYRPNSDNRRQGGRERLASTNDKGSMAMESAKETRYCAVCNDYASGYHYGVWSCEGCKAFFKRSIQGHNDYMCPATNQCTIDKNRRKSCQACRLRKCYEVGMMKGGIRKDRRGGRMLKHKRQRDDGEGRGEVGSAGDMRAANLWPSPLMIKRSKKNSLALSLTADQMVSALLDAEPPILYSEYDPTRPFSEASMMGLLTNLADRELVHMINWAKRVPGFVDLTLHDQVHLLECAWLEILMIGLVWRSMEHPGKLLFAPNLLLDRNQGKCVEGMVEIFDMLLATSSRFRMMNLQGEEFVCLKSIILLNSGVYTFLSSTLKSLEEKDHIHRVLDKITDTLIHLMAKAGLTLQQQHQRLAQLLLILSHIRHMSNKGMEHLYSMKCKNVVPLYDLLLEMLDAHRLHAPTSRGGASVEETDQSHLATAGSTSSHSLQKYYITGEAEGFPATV
# test details: qHTS assay to identify small molecule antagonists of the estrogen receptor alpha (ER-alpha) signaling pathway (AID 743069)
# test context: HEK293 ER-alpha-UAS-bla, beta-lactamase ratio, antagonist mode; series mostly up to 69.4 µM
Inconclusive results are not listed. The source made the active and inactive calls. Calls follow the shape of the dose curve; as a rule, active = well fitted curve in the direction sought with a large enough effect in the signal ratio in the repeat runs (not every such curve was filed as active); inconclusive = weak or mixed curves, or effect the other way; inactive = no such curve, though single readings can be large or run the other way; the % refers to the signal ratio.
observable: outcome

Take a look at these entries with their results.
c1ccc2c(c1)sc1ccccc12	inactive
O=C(O)C(F)(F)C(F)(F)C(F)(F)C(F)(F)C(F)(F)F	inactive
C[N+](C)(C)CC1CO1 (centres undefined)	inactive
CCOP(=S)(OCC)SCSc1cc(Cl)ccc1Cl	inactive

# query: outcome of entry Cc1cnc(C2=NC(C)(C(C)C)C(=O)N2)c(C(=O)O)c1 (centres undefined)
inactive

# query: outcome of entry CC(Oc1cc(Cl)c(Cl)cc1Cl)C(=O)O (centres undefined)
inactive

---

# test details: A CellTox Green Cytotoxicity Assay to monitor cytotoxicity in HepG2 cells - 24 hour (AID 1224878); further: nearly all actives have a fitted effect of over 45% in size
# test context: CellTox Green fluorescence; series mostly up to 76.8 µM
Results filed as inconclusive are left out. Active and inactive are the calls of the source. Calls follow the shape of the dose curve; as a rule, active = well fitted activation curve with a large enough effect in the repeat runs; inconclusive = weak or mixed curves; inactive = flat fitted curve, though single readings scatter.
Select the correct class. Options are active, inactive and nothing else.

O=C(Cc1ccccc1)c1ccccc1	inactive
CCCCC(CC)COC(=O)c1c(Br)c(Br)c(Br)c(Br)c1C(=O)OCC(CC)CCCC (centres undefined)	inactive

Field: outcome | Entry: OCCCl
inactive

Field: outcome | Entry: N#CC(C#N)=Cc1ccc(O)c(O)c1
inactive

---

# test details: qHTS assay to identify small molecule agonists of the estrogen receptor alpha (ER-alpha) signaling pathway in the presence of an antagonist - cell viability counter screen (AID 1259386);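 further: cells exposed to compounds for 22 h at 37 °C before the viability read; nearly all actives have a fitted effect of over 30% in size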
# test context: VM7Luc4E2 viability, CellTiter-Fluor fluorescence, 22 h; series mostly up to 92.4 µM
Records with an inconclusive call do not appear. Active and inactive are the calls of the source. Calls come from the whole dose curve; as a rule, active = well fitted cell-killing curve with a large enough effect in the repeat runs; inconclusive = weak or mixed curves, or effect the other way; inactive = no such curve, though single readings can be large or run the other way.
Select the correct class. Options are active, inactive and nothing else.

Nc1cccc2ccccc12	inactive
O=C(O)C(O)C(O)C(=O)O (stereo unspecified)	inactive
CCCCCCCCCCCCCCCl	inactive
C[C@]12CC[C@H]3[C@@H](CCC4=CC(=O)CC[C@@H]43)[C@@H]1CC[C@@H]2OC(=O)CCc1ccccc1	inactive
SCc1ccccc1	inactive
C=CCOCC1CO1 (stereo unspecified)	inactive
CCCCCCCCP(=O)(O)O	inactive
CCc1cnc(C2=NC(C)(C(C)C)C(=O)N2)c(C(=O)O)c1 (stereo unspecified)	inactive
CCSCc1ccccc1OC(=O)NC	inactive
CN(C)C(=O)Nc1cccc(OC(=O)NC(C)(C)C)c1	inactive

Field: outcome | Entry: C#C[C@]1(O)CC[C@H]2[C@@H]3CCC4=CC(=O)CCC4=C3C=C[C@@]21CC
inactive

Field: outcome | Entry: CCOP(=S)(S)OCC
inactive

Field: outcome | Entry: FC(Cl)(Cl)C(F)(Cl)Cl
inactive

Field: outcome | Entry: COc1ccccc1N1CCNCC1
inactive

Field: outcome | Entry: Cc1ccc2c(C)cccc2c1
inactive

Field: outcome | Entry: COc1cc(CC(C)N)c(OC)cc1Br (stereo unspecified)
inactive

Field: outcome | Entry: OCCSSCCO
inactive

---

# test details: qHTS assay for small molecules that induce genotoxicity in human embryonic kidney cells expressing luciferase-tagged ATAD5 - cell viability (AID 651634); further: nearly all actives have a fitted effect of over 25% in size
# test context: HEK293T ATAD5-luc cells viability, CellTiter-Fluor, 15.5 h; series mostly up to 83.3 µM
Results filed as inconclusive are left out. Activity calls are given as the source filed them. Calls follow the shape of the full dose curve.
observable: outcome

Take a look at these entries with their results.
C1CS1	inactive
C[N+]1(CCF)[C@@H]2CC[C@H]1CC(OC(=O)C(O)(c1ccccc1)c1ccccc1)C2 (some centres undefined)	inactive
CCCCC(CC)CO[N+](=O)[O-] (centres undefined)	inactive
Cc1nnc(-c2ccccc2)c(=O)n1N	inactive
CCOC(=O)C1OC1(C)c1ccccc1 (centres undefined)	inactive
CCC(C)Cl (centres undefined)	inactive
CCOc1cccc(C2(N3CCN(c4ccccc4)CC3)CCC(C)CC2)c1 (centres undefined)	inactive
CCC1(CC)C(=O)NC(=O)NC1=O	inactive
O=C1NC(=O)C(=O)C(=O)N1	inactive
O=[N+]([O-])c1cc(Cl)c(Cl)cc1Cl	inactive

# query: outcome of entry Nc1c(Br)cc(Br)c2c1C(=O)c1ccccc1C2=O
inactive

# query: outcome of entry CCOC(=O)c1cn2nc(OP(=S)(OCC)OCC)cc2nc1C
inactive

# query: outcome of entry Clc1ccc2ccccc2c1
inactive

# query: outcome of entry CN(C1CCCCC1)C1CCCCC1
inactive

---

# test details: qHTS assay for small molecule agonists of the antioxidant response element (ARE) signaling pathway (AID 743202)
# test context: HepG2 ARE-bla reporter, beta-lactamase FRET, 16 h; series mostly up to 73.3 µM
Records with an inconclusive call do not appear. The source made the active and inactive calls. The call rests on the fitted dose curve; in most records, active means well fitted activation curve with a large enough effect in the signal ratio in the repeat runs (not every such curve was filed as active); inconclusive means weak or mixed curves, or effect the other way; inactive means no such curve, though single readings can be large or run the other way; the % refers to the signal ratio.
Select the correct class. Options are active, inactive and nothing else.

Example entries and their recorded answers appear below.
c1ccc2sc(SNC3CCCCC3)nc2c1	active
C=CCc1ccc(OC(=O)Cc2ccccc2)c(OC)c1	inactive
O=C([O-])c1ccccn1.O=C([O-])c1ccccn1.O=C([O-])c1ccccn1.[Cr+3]	inactive

Field: outcome | Entry: Oc1cccc(Cl)c1
inactive

Field: outcome | Entry: FC(F)OC(F)(F)C(F)Cl (configuration not stated)
inactive

Field: outcome | Entry: SCc1ccccc1
inactive
